Tested on: Caco-2 cell monolayer
Test: Caco-2 transepithelial transport assay of digested red wine
Format: in vitro ADME, human
Conditions: Caco-2
Marks after values point to notes of the source that are not given here.
Measurement Name: PC Contents, Cabernet, Transmembrane

{"Molecule": "COc1cc(-c2[o+]c3cc(O)cc(O)c3cc2O[C@@H]2O[C@H](CO)[C@@H](O)[C@H](O)[C@H]2O)cc(O)c1O", "Subject Of Test": "Caco-2 cell monolayer", "Val": "1.56 ± 0.07 ^a mg/L"}
{"Molecule": "COc1cc(-c2oc3cc(O)cc(O)c3c(=O)c2O[C@@H]2O[C@H](CO)[C@@H](O)[C@H](O)[C@H]2O)cc(O)c1O", "Subject Of Test": "Caco-2 cell monolayer", "Val": "0.84 ± 0.04 ^a mg/L"}
{"Molecule": "COc1cc(-c2oc3cc(O)cc(O)c3c(=O)c2O[C@@H]2O[C@H](CO)[C@@H](O)[C@H](O)[C@H]2O)cc(OC)c1O", "Subject Of Test": "Caco-2 cell monolayer", "Val": "1.23 ± 0.04 ^a mg/L"}
{"Molecule": "COc1cc(/C=C/C(=O)OC(C(=O)O)C(O)C(=O)O)ccc1O (stereo not drawn)", "Subject Of Test": "Caco-2 cell monolayer", "Val": "1.40 ± 0.07 ^a mg/L"}
{"Molecule": "COc1cc(-c2[o+]c3cc(O)cc(O)c3cc2OC2OC(COC(C)=O)C(O)C(O)C2O)cc(O)c1O (stereo not drawn)", "Subject Of Test": "Caco-2 cell monolayer", "Val": "0.19 ± 0.008 ^a mg/L"}
{"Molecule": "O=C(/C=C/c1ccc(O)cc1)O[C@@H](C(=O)O)[C@@H](O)C(=O)O", "Subject Of Test": "Caco-2 cell monolayer", "Val": "0.38 ± 0.02 ^a mg/L"}
